# Test system: Pseudomonas aeruginosa K799/WT
# Procedure text: In vitro assay of antibacterial activity (agar dilution MIC)
# Format: cell-based
# Test conditions: BHI agar, 35-37 °C, 20 to 24 hours, unit assumed
Readout: MIC

Reference set, count: 3
Compound: CC[C@H]1OC(=O)[C@H](C)[C@@H](O[C@H]2C[C@@](C)(OC)[C@@H](O)[C@H](C)O2)[C@H](C)[C@@H](O[C@@H]2O[C@H](C)C[C@H](N(C)C)[C@H]2O)[C@](C)(OCC(O)CN2CCOCC2)C[C@@H](C)C(=O)[C@H](C)[C@@H](O)[C@]1(C)O (stereo partly shown) [Example 6]
MIC: > 100 µg/mL
--
Compound: C#CCO[C@]1(C)C[C@@H](C)C(=O)[C@H](C)[C@@H](O)[C@](C)(O)[C@@H](CC)OC(=O)[C@H](C)[C@@H](O[C@H]2C[C@@](C)(OC)[C@@H](O)[C@H](C)O2)[C@H](C)[C@H]1O[C@@H]1O[C@H](C)C[C@H](N(C)C)[C@H]1O [Example 10]
MIC: > 100 µg/mL
--
Compound: CCCO[C@]1(C)C[C@@H](C)C(=O)[C@H](C)[C@@H](O)[C@](C)(O)[C@@H](CC)OC(=O)[C@H](C)[C@@H](O[C@H]2C[C@@](C)(OC)[C@@H](O)[C@H](C)O2)[C@H](C)[C@H]1O[C@@H]1O[C@H](C)C[C@H](N(C)C)[C@H]1O [Example 2]
MIC: 6.2 µg/mL

Supply reported MIC belonging to this compound: CC[C@H]1OC(=O)[C@H](C)[C@@H](O[C@H]2C[C@@](C)(OC)[C@@H](O)[C@H](C)O2)[C@H](C)[C@@H](O[C@@H]2O[C@H](C)C[C@H](N(C)C)[C@H]2O)[C@](C)(OCC=NO)C[C@@H](C)C(=O)[C@H](C)[C@@H](O)[C@]1(C)O [Example 12] > 100 µg/mL

Source of measurements: patent EP1007530B1
